// data source = patent US20250026752A1

target: human mAChR M4 (Homo sapiens); construct: expressed in transfected cells; host or cells: CHO-K1 (ATCC), stably expressing hM4 and Gqi5; assay: mAChR M4 cell-based functional assay: calcium flux (Fluo-4, FDSS), positive allosteric modulator activity on the EC20 acetylcholine response, hM4-Gqi5 CHO-K1 cells; conditions: CHO-K1, human M4; % ACh maximum at 30 μM
Field: Emax at 30 µM. Provide a value for each of the compounds that follow.
Give bare numbers, in %.

Example entries begin here.
sample_smiles=Cn1nccc1Nc1nc(N2CCc3ncc(C(F)(F)F)cc3C2)c2cc(F)ccc2n1 recorded_metric="Emax at 30 µM" result_units=% number=98
sample_smiles=Cc1ccccc1-c1cnc2c(c1)CN(c1ncnc3ccc(F)cc13)CC2 recorded_metric="Emax at 30 µM" result_units=% number=79
sample_smiles=Fc1cccc(Cc2cnc3c(c2)CN(c2ncnc4ccc(F)cc24)CC3)c1 recorded_metric="Emax at 30 µM" result_units=% number=75
sample_smiles=COc1ccc2ncnc(N3CCc4ncc(N5CCCn6nccc65)cc4C3)c2c1 recorded_metric="Emax at 30 µM" result_units=% number=127
sample_smiles=C[C@@H]1CCN(c2cnc3c(c2)CN(c2ncnc4ccc(F)cc24)CC3)c2ccnn21 recorded_metric="Emax at 30 µM" result_units=% number=75
sample_smiles=Cc1nc(N2CCc3ncc(N4CCOc5ncccc54)cc3C2)c2cc(C(F)(F)F)ccc2n1 recorded_metric="Emax at 30 µM" result_units=% number=81
sample_smiles=Fc1ccc2ncnc(N3CCc4ncc(-c5cnn(C6CC6)c5)cc4C3)c2c1 recorded_metric="Emax at 30 µM" result_units=% number=99

Now for a further compound.
Find the measured Emax at 30 µM: item Cc1nc(N2CCc3ncc(-c4ccc(N(C)C)nc4)cc3C2)c2cc(Cl)ccc2n1 , target or system human mAChR M4 (Homo sapiens). 81

* * *

Molecular target: human mAChR M4 (Homo sapiens)
Construct: expressed in transfected cells; host or cells: CHO-K1 (ATCC), stably expressing hM4 and Gqi5
Sequence (P08173 1-479): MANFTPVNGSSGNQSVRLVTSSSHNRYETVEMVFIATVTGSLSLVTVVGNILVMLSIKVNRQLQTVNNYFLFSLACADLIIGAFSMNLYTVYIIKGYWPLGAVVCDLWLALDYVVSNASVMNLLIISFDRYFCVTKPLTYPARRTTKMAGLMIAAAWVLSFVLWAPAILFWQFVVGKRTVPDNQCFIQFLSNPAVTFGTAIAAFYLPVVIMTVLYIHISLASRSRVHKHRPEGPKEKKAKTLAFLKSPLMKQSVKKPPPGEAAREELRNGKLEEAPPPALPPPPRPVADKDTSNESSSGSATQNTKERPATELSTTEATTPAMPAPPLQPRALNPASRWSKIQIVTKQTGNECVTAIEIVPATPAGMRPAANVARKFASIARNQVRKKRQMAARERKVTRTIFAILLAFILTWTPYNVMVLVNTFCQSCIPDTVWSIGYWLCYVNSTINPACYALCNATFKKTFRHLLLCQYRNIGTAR
Test: mAChR M4 cell-based functional assay: calcium flux (Fluo-4, FDSS), positive allosteric modulator activity on the EC20 acetylcholine response, hM4-Gqi5 CHO-K1 cells
Conditions: CHO-K1, human M4; % ACh maximum at 30 μM
Field: Emax at 30 µM. Provide a value for each of the compounds that follow.
Answers without a unit are incomplete; give the number and then its unit.

Example entries begin here.
compound=Cc1nc(N2CCc3ncc(-c4cc(F)ccc4C)cc3C2)c2cc(F)ccc2n1 result=85%
compound=Cc1cc(F)ncc1-c1cnc2c(c1)CN(c1ncnc3ccc(Cl)cc13)CC2 result=86%

For the 5 compounds below, give their Emax at 30 µM values.
1. CC1CN(c2ncnc3ccc(F)cc23)Cc2cc(C(F)(F)F)cnc21 (single isomer, unassigned) [Compound 116]
2. Clc1ccc2ncnc(N3CCc4ncc(-c5cnn(C6CC6)c5)cc4C3)c2c1
3. CC1CN(c2ncnc3ccc(F)cc23)Cc2cc(N(c3cccnc3)c3cccnc3)cnc21 (centres unmarked)
4. Fc1ccc2nc(NC3CC3)nc(N3CCc4ncc(C(F)(F)F)cc4C3)c2c1
5. Cc1nc(N2CCc3ncc(-c4ccnn4C(C)C)cc3C2)c2cc(Cl)ccc2n1

1: 113%; 2: 78%; 3: 77%; 4: 98%; 5: 86%

For the 6 compounds below, give their Emax at 30 µM values.
1. CC1Cc2ncc(C(F)(F)F)cc2CN1c1ncnc2ccc(F)cc12 (centres unmarked)
2. FC(F)(F)c1cnc2c(c1)CN(c1nc(C3CC3)nc3ccc(Cl)cc13)CC2
3. Cn1nccc1-c1cnc2c(c1)CN(c1ncnc3ccc(F)cc13)CC2
4. COc1ccc2nc(C)nc(N3CCc4ncc(-c5cnc(F)cc5C)cc4C3)c2c1
5. Cc1ccc2ncnc(N3CCc4ncc(-c5cnc(F)cc5C)cc4C3)c2c1
6. CC1CN(c2ncnc3ccc(Cl)cc23)Cc2cc(N3CCOCC3)cnc21 (centres unmarked)

["98%", "75%", "70%", "76%", "83%", "96%"]

For the 4 compounds below, give their Emax at 30 µM values.
1. Cc1nc(N2CCc3ncc(-c4cnc(C)s4)cc3C2)c2cc(C(F)(F)F)ccc2n1
2. OC1(C2CC2)CN(c2nc(N3CCc4ncc(N5CCCn6nccc65)cc4C3)c3cccnc3n2)C1
3. Cc1nc(N2CCc3ncc(N4CCCn5nccc54)cc3C2)c2cc(C(F)(F)F)ccc2n1
4. Cc1noc(C)c1-c1cnc2c(c1)CN(c1ncnc3cc(F)c(F)cc13)CC2

["45%", "82%", "92%", "79%"]

* * *

Field: pEC50. Provide a value for each of the compounds that follow.
Target: human mAChR M4 (Homo sapiens, UniProt P08173)
Construct: expressed in transfected cells; host or cells: CHO-K1 (ATCC), stably expressing hM4 and Gqi5
Experiment: mAChR M4 cell-based functional assay: calcium flux (Fluo-4, FDSS), positive allosteric modulator activity on the EC20 acetylcholine response, hM4-Gqi5 CHO-K1 cells
Details: human M4; PAM activity on EC20 acetylcholine response, calcium flux; read-out: Human M4 EC50
Protocol: […] Calcium flux was measured using the Functional Drug Screening System (FDSS) 6000 or 7000 (Hamamatsu Corporation, Tokyo, Japan) as an increase in the fluorescent static ratio. […] Agonist activity was analyzed as a concentration-dependent increase in calcium mobilization upon compound addition. Positive allosteric modulator activity was analyzed as a concentration-dependent increase in the EC20 acetylcholine response. […]
Numbers only, as −log10 of the molar value.

compound=Cn1nccc1Nc1cnc2c(c1)CN(c1nc(N3CCCC3)nc3ccc(F)cc13)CC2 target_desc="human mAChR M4 (Homo sapiens, UniProt P08173)" recorded_metric=pEC50 number=6.62
compound=Cc1ccc(-c2cnc3c(c2)CN(c2nc(C)nc4ccc(Cl)cc24)CC3)cn1 target_desc="human mAChR M4 (Homo sapiens, UniProt P08173)" recorded_metric=pEC50 number=6.54
compound=Cc1ncc(-c2cnc3c(c2)CN(c2ncnc4ccc(F)cc24)CC3)s1 target_desc="human mAChR M4 (Homo sapiens, UniProt P08173)" recorded_metric=pEC50 number=6.77
compound=Cc1nc(N2CCc3ncc(N4CCOc5ncccc54)cc3C2)c2cc(C(F)(F)F)ccc2n1 target_desc="human mAChR M4 (Homo sapiens, UniProt P08173)" recorded_metric=pEC50 number=5.48
compound=Cc1nc(N2CCc3ncc(N4CCO[C@H](c5ccccc5)C4)cc3C2)c2cc(F)ccc2n1 target_desc="human mAChR M4 (Homo sapiens, UniProt P08173)" recorded_metric=pEC50 number=5.77
compound=Cc1nc(N2CCc3ncc(-c4cn(C)nc4C)cc3C2)c2cc(Cl)ccc2n1 target_desc="human mAChR M4 (Homo sapiens, UniProt P08173)" recorded_metric=pEC50 number=6.60

For the 2 compounds below, give their pEC50 values.
1. CC1CN(c2ncnc3ccc(F)cc23)Cc2cc(N3C(=O)COc4ccccc43)cnc21 (centres unmarked)
2. Cc1ccc2ncnc(N3CCc4ncc(-c5cnc(F)cc5C)cc4C3)c2c1

1: 6.12; 2: 7.40

* * *

target: human mAChR M4 (Homo sapiens); construct: expressed in transfected cells; host or cells: CHO-K1 (ATCC), stably expressing hM4 and Gqi5; experiment: mAChR M4 cell-based functional assay: calcium flux (Fluo-4, FDSS), positive allosteric modulator activity on the EC20 acetylcholine response, hM4-Gqi5 CHO-K1 cells; conditions: human M4; PAM activity on EC20 acetylcholine response, calcium flux; read-out: Human M4 EC50
I'd appreciate it if you marked entries Y when EC50 is lower than 200 nM and N when it is not.

Consider the following illustrative entries.
compound="Cc1ccc2ncnc(N3CCc4ncc(-c5cc(F)ccc5C)cc4C3)c2c1 [Compound 299]" answer_label=N
compound="Cc1nc(N2CCc3ncc(-c4cn(C)nc4C)cc3C2)c2cc(C(F)(F)F)ccc2n1 [Compound 57]" answer_label=N
compound="COc1ccc2nc(C)nc(N3CCc4ncc(-c5cc(F)ccc5C)cc4C3)c2c1 [Compound 313]" answer_label=N
compound="Fc1cccc(Oc2cnc3c(c2)CN(c2ncnc4cc(F)c(F)cc24)CC3)c1 [Compound 159]" answer_label=N

For C[C@H]1CN(c2ncnc3ccc(F)cc23)Cc2cc(N3CCOCC3)cnc21 [Compound 262] , is the recorded EC50 below the cut-off of 200 nM? N

For Fc1ccc2nc(C(F)(F)F)nc(N3CCc4ncc(C(F)(F)F)cc4C3)c2c1 [Compound 173] , is the recorded EC50 below the cut-off of 200 nM? Y

For COc1cc2c(N3CCc4ncc(N5CCCn6nccc65)cc4C3)nc(Cl)nc2cc1F [Compound 102] , is the recorded EC50 below the cut-off of 200 nM? N

For Cn1nccc1-c1cnc2c(c1)CN(c1ncnc3ccc(Cl)cc13)CC2 [Compound 39] , is the recorded EC50 below the cut-off of 200 nM? Y

For Fc1cc2ncnc(N3CCc4ncc(N5CCCn6nc(C(F)(F)F)cc65)cc4C3)c2cc1F [Compound 278] , is the recorded EC50 below the cut-off of 200 nM? N

For C[C@H]1CN(c2ncnc3ccc(Cl)cc23)Cc2cc(N3CCOCC3)cnc21 [Compound 263] , is the recorded EC50 below the cut-off of 200 nM? Y

For Fc1ccc2nc(NC3CC(F)(F)C3)nc(N3CCc4ncc(C(F)(F)F)cc4C3)c2c1 [Compound 184] , is the recorded EC50 below the cut-off of 200 nM? N

For COc1ccc2ncnc(N3CCc4ncc(N5CCOc6ncccc65)cc4C3)c2c1 [Compound 79] , is the recorded EC50 below the cut-off of 200 nM? N
